- assay_details: pH range solubility in biorelevant media
- Type: physicochemical
- test_context: FeSSIF biorelevant medium, pH 5, fessif, thermodynamic from solid, pH 5.0 (FeSSIF); Upper intestine after a meal; read-out: Solubility
metric: solubility

Answer with the recorded solubility for the compound listed here: CN1CC[C@@H](c2c(O)cc(O)c3c(=O)cc(-c4ccc(C(F)(F)F)cc4Cl)oc23)[C@@H]1CO.O=C(O)CC(=O)O [Voruciclib Malonate]
< 4 µg/mL

###

- assay_details: pH range solubility in biorelevant media
- Format: physicochemical
- test_context: FaSSGF biorelevant medium, pH 1.6, fassgf or other biorelevant, thermodynamic from solid, pH 1.6 (FaSSGF); Stomach after glass of water; tested in duplicate; read-out: Solubility
metric: solubility

Answer with the recorded solubility for the compound listed here: CN1CC[C@@H](c2c(O)cc(O)c3c(=O)cc(-c4ccc(C(F)(F)F)cc4Cl)oc23)[C@@H]1CO.O=C(O)CC(=O)O [Voruciclib Malonate]
> 13.4 mg/mL
